test: MTS/MTT dye toxicity assay; type: cell-based; conditions: African green monkey; VERO; read-out: CC50
assay.readout: CC50 at 3 days

CC50 at 3 days lookup needed for Nc1ccn([C@H]2S[C@@H](CO)C=C2F)c(=O)n1 , thanks.
> 100 µM

---

Known EC50 of a selection of compounds
system: HIV-1 xxBRU (sensitive strain); assay: real-time RT-PCR HIV-1 viral load in culture supernatant, infected human PBMC; settings: xxBRU, real-time RT-PCR, human PBMC, 5 days
Entry rule: numbers only, all in nM.

See these solved cases before continuing.
Cc1cn([C@H]2C[C@H](N=[N+]=[N-])[C@@H](CO)O2)c(=O)[nH]c1=O
3.9
Nc1ccn([C@@H]2CS[C@H](CO)O2)c(=O)n1
30

API: the following record is the query input.
EC50 lookup needed for Cc1cn([C@H]2C=C[C@@H](CO)O2)c(=O)[nH]c1=O , thanks.
2.7

---

assay: MTS/MTT dye toxicity assay; type: cell-based; conditions: human
assay.readout: CC50 at 3 days

CC50 at 3 days lookup needed for Nc1ccn([C@@H]2S[C@H](CO)C=C2F)c(=O)n1 [β-D-d4-2′F-(4-S-pentenyl)-C] , thanks.
> 100 µM

---

test: MTS/MTT dye toxicity assay; type: cell-based; settings: human; CEM; read-out: CC50
assay.readout: CC50 at 4 days

CC50 at 4 days lookup needed for Nc1ccn([C@H]2S[C@@H](CO)C=C2F)c(=O)n1 , thanks.
> 100 µM

---

experiment: MTS/MTT dye toxicity assay; type: cell-based; conditions: human; HepG2; read-out: CC50
assay.readout: CC50 at 3 days

CC50 at 3 days lookup needed for Nc1ccn([C@H]2S[C@@H](CO)C=C2F)c(=O)n1 , thanks.
> 100 µM

---

Assay: MTS/MTT dye toxicity assay
Format: cell-based
Settings: human
Description: After a three day-incubation, or 4 for CEM, or 5 days for PBMC, cell viability and mitochondrial activity were measured in a colorimetric assay using the MTS- or MTT dye (Promega, Wis.). The cytotoxicity testing as performed here is a standard technique. […] After a three day-incubation, cell viability and mitochondrial activity are measured by adding the MTS-dye (Promega), followed by a 3 hours incubation. Afterwards the plates containing the dye are read at 490 nm. […]
assay.readout: CC50 at 4 days

CC50 at 4 days lookup needed for Nc1ccn([C@@H]2S[C@H](CO)C=C2F)c(=O)n1 [β-D-d4-2′F-(4-S-pentenyl)-C] , thanks.
> 100 µM

---

test: MTS/MTT dye toxicity assay; format: cell-based, human; conditions: human
assay.readout: CC50 at 5 days

CC50 at 5 days lookup needed for Nc1ccn([C@@H]2S[C@H](CO)C=C2F)c(=O)n1 , thanks.
> 100 µM
